Test: solvent given as SMILES
Details: in CC#N
Reported absorption maximum values for the following molecules.
ASSAY_READOUT: absorption maximum (nm)

>>> obs_value("Nc1ccc2c(c1)C(=O)c1ccc(N)cc1C2=O")
438
>>> obs_value("CCN(CC)c1ccc(/C=C/C(=O)c2c(O)cc(C)oc2=O)cc1")
476
>>> obs_value("COC(=O)C(NC(=O)OC(C)(C)C)c1ccc2oc(-c3cccc(Oc4ccccc4)c3)nc2c1 (stereo unspecified)")
305
>>> obs_value("Cc1cnc(NC(=O)C2=C(O)c3ccccc3S(=O)(=O)N2C)s1")
340
>>> obs_value("COc1ccc2c(c1)C(=O)c1cc(OC)cc(OC)c1-2")
491
>>> obs_value("C[C@]12SC(=O)C=C1c1nc(-c3ccccc3)[nH]c1C1=CC(=O)S[C@@]12C")
460
>>> obs_value("CC1(C)CC(NCc2ccc3ccc4cccc5ccc2c3c45)CC(C)(C)N1")
374
>>> obs_value("COc1ccc2c(CC(=O)NN)coc2c1")
290
>>> obs_value("Cc1cc(O)c(C(=O)/C=C/c2ccccc2[N+](=O)[O-])c(=O)o1")
352
>>> obs_value("C(=C\\c1ccc(-c2nnc(-c3ccc(/C=C/c4ccc(-c5nc(-c6ccccc6)c(-c6ccccc6)[nH]5)cc4)cc3)o2)cc1)/c1ccc(-c2nc(-c3ccccc3)c(-c3ccccc3)[nH]2)cc1")
391
>>> obs_value("COC(=O)c1cc(=O)n(C)c2cc(-c3ccc4c(c3)OCCO4)sc12")
398
>>> obs_value("COc1ccc(/C=C2\\OC(=O)c3ccccc32)cc1")
336
>>> obs_value("CC(C)[Si]1(C(C)C)c2cc(C#N)ccc2-c2ccc(N(c3ccccc3)c3ccccc3)cc21")
381
>>> obs_value("c1ccc(-c2cc(-c3ccc(N(c4ccccc4)c4ccccc4)cc3)cc(-c3ccccc3)n2)cc1")
357
>>> obs_value("Nc1ccccc1C(=O)O")
336
>>> obs_value("CC(=O)c1nc(-c2ccc(N(c3ccccc3)c3ccccc3)cc2)oc1C")
332
>>> obs_value("CN(C)c1ccc(C#Cc2ccc3ccc(=O)oc3c2)cc1")
333
>>> obs_value("C(=C\\c1c2ccccc2cc2ccccc12)/c1cccc2ccccc12")
386
>>> obs_value("C(=C\\c1ccc(/C=C/c2cccs2)s1)/c1cccs1")
423
>>> obs_value("CN(C)c1ccc2c3c(c(=O)oc2c1)C=c1cc2c(cc1O3)=[N+](CCC(=O)O)CCC2")
593
>>> obs_value("[C-]#[N+]c1ccc(-c2ccc(N)cc2)cc1")
310

====

// absorption maximum lookup, one value per entry
Assay: solvent given as SMILES
Conditions: in CCO
ASSAY_READOUT: absorption maximum

>>> obs_value("O=Cc1ccc(-c2ccc(O)c(-c3nc4ccccc4s3)c2)o1")
"341 nm"
>>> obs_value("CC1(C)C(/C=C/c2cc3ccc(O)cc3oc2=O)=[N+](CCCS(=O)(=O)[O-])c2ccccc21")
"623 nm"
>>> obs_value("CCOC(=O)c1sc(SC)c2c(=O)[nH]nnc12")
"385 nm"
>>> obs_value("CN1/C(=C/C=C(/C=C/C2=[N+](C)c3ccccc3C2(C)C)c2ccc(C(F)(F)F)cc2)C(C)(C)c2ccccc21")
"637 nm"
>>> obs_value("CN(C)c1cccc2c1ccc1c(=O)oc(-c3ccc(C(F)(F)F)cc3)cc12")
"393 nm"
>>> obs_value("Cc1cc2ccc(-c3cccc4cccc(-c5ccc6cc(C)c(=O)oc6c5)c34)cc2oc1=O")
"328 nm"
>>> obs_value("COc1ccc2c(=O)c3c([nH]c2c1)-c1cc(Cl)ccc1NC3(C)C")
"426 nm"
>>> obs_value("O=[N+]([O-])c1ccc(NCCNCc2c3ccccc3cc3ccccc23)c([N+](=O)[O-])c1")
"364 nm"
>>> obs_value("CC(=O)c1nc(-c2ccc(N(c3ccccc3)c3ccccc3)cc2)oc1C")
"333 nm"
